The entries below are paired with their reported solubility.
protocol-details: Assessment of solubility: HT solubility in pION buffer, UV spectrophotometry
study-conditions: pION system solution buffer, pH 4.5, pH 4.5, aqueous buffer, kinetic from dmso stock, Solubility (pH 4.5), pH 4.5 buffer, 16-19 h incubation, 1.0% DMSO

Entry under test: Cc1ccc(OCc2ccc(CN3CCN(C(=O)N(C)C)CC3)cc2C)c(-c2csc(N3CCC(C(=O)O)CC3)n2)c1 [Compound 199] . Its solubility was > 59 µg/mL

# solubility (molecule: Cc1ccc(OCc2ccc(C(=O)N(C)CCC#N)cc2C)c(-c2csc(N3C[C@H]4CC[C@@H](C3)[C@H]4C(=O)O)n2)c1 [Compound 296] ) is < 0.1 µg/mL

solubility measured on Cc1ccc(OCc2ccc(C(=O)N3C[C@H]4CC[C@@H](C3)O4)cc2C)c(-c2csc(N3C[C@H]4CC[C@@H](C3)[C@H]4C(=O)O)n2)c1 [Compound 340] = < 0.1 µg/mL

Please fill in: solubility reported for Cc1ccc(OCc2ccc(C(=O)N3CCCCC3)cc2C)c(-c2csc(N3CC[C@@]4(C(=O)O)C[C@H]4C3)n2)c1 [Compound 226] = < 0.1 µg/mL

Values from patent US8815857B2
